Biological target: UniProtKB Q13255
Experiment: Calcium mobilization mGlu1 assay
Format: cell-based
attribute.measured: mGlu1 potency relative to 8 (fold less potent)

compound | result
O=C(N1C[C@@H]2CN(c3ncccc3F)C[C@@H]2C1)C12CC3CC(CC(C3)C1)C2 [Compound 29] | 12 fold
CC1(C(=O)N2C[C@@H]3CN(c4ccccn4)C[C@@H]3C2)CCCCC1 [Compound 14] | sixty

###

Target: human mGlu1 (Homo sapiens, UniProt Q13255)
Sequence (Q13255 19-1194): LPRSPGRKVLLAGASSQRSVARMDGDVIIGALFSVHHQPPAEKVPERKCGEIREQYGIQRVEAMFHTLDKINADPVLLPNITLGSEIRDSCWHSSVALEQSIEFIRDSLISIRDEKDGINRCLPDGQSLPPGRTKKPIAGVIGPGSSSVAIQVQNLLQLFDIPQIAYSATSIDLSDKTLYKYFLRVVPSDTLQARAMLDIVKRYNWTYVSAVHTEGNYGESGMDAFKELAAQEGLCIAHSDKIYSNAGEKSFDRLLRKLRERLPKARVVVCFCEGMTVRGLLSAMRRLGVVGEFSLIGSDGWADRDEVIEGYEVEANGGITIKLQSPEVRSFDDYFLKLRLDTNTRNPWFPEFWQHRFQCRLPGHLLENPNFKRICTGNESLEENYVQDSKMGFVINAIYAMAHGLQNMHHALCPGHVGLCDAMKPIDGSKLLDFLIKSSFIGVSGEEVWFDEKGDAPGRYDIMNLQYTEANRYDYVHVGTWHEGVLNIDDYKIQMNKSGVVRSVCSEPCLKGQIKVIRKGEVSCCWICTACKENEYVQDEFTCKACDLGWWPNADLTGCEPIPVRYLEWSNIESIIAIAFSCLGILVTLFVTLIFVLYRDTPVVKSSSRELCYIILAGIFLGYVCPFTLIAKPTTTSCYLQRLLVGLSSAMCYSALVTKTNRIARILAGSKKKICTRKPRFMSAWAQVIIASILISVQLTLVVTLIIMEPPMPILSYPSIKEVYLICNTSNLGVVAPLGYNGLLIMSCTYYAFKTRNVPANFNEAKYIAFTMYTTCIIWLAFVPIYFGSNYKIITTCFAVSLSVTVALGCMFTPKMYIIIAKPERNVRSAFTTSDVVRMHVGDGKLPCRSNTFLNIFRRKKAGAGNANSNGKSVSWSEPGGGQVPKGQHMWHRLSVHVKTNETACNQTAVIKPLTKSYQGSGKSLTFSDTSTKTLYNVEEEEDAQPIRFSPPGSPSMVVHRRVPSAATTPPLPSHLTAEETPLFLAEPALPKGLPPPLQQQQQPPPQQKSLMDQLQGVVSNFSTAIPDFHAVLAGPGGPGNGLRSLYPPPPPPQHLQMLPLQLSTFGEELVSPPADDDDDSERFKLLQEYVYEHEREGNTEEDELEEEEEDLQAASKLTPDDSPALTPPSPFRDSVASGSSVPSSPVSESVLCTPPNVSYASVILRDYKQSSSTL
Experiment: Calcium mobilization mGlu1 assay
Assay type: cell-based
Settings: up to the top concentration of 30 μM
attribute.measured: mGlu1 antagonism (in words)

smiles.text | attribute.measured | result
O=C(N1C[C@@H]2CN(c3nccs3)C[C@@H]2C1)C12CC3CC(CC(C3)C1)C2 | mGlu1 antagonism (in words) | only weak antagonists
O=C(N1C[C@@H]2CN(c3ncccn3)C[C@@H]2C1)C12CC3CC(CC(C3)C1)C2 | mGlu1 antagonism (in words) | only weak antagonists
CC(C)(C)C(=O)N1C[C@@H]2CN(c3ccccn3)C[C@@H]2C1 | mGlu1 antagonism (in words) | inactive
O=C(N1C[C@@H]2CN(c3ccncn3)C[C@@H]2C1)C12CC3CC(CC(C3)C1)C2 | mGlu1 antagonism (in words) | only weak antagonists
CC(C)(C)CC(=O)N1C[C@@H]2CN(c3ccccn3)C[C@@H]2C1 | mGlu1 antagonism (in words) | inactive
N#Cc1ncccc1N1C[C@H]2CN(C(=O)C34CC5CC(CC(C5)C3)C4)C[C@H]2C1 | mGlu1 antagonism (in words) | moderate potency
N#Cc1ccncc1N1C[C@H]2CN(C(=O)C34CC5CC(CC(C5)C3)C4)C[C@H]2C1 | mGlu1 antagonism (in words) | moderate potency

The measured values listed here are drawn from paper PMC3901432.
